Each entry below carries its recorded pIC50.
experimental_target: human TRPC6 (Homo sapiens)
Sequence (Q9Y210 whole entry): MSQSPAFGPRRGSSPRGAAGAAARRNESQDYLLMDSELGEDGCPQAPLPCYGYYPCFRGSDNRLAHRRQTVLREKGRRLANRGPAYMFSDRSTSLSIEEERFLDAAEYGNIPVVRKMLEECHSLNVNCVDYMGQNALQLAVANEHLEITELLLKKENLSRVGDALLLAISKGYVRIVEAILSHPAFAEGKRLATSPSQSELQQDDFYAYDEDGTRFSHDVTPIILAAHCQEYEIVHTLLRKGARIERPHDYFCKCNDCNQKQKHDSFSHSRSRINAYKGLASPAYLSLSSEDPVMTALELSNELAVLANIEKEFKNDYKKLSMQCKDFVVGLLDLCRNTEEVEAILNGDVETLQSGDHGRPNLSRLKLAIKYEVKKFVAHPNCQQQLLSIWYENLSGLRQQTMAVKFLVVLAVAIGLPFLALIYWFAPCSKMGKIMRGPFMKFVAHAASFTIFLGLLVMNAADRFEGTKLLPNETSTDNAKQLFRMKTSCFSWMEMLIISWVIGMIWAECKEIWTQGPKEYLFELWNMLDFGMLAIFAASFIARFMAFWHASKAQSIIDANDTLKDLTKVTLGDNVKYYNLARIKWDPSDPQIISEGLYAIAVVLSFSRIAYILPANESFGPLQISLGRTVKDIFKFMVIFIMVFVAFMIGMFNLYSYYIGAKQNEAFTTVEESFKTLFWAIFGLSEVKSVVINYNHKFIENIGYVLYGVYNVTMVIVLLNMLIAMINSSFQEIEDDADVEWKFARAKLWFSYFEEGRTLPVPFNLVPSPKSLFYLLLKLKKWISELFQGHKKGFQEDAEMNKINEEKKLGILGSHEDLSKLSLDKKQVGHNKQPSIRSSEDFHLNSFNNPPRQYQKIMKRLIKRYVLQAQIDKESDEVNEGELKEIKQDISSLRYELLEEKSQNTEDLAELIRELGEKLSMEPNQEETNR
experiment_notes: TRPC6 calcium flux assay (FLIPR, OAG-stimulated calcium influx)
experimental_context: HEK293 cells stably transfected with human TRPC6, read-out: hTRPC6 Potency
In simple prose, pIC50 is minus the logarithm base ten of a concentration in moles per litre.

Sample answers from the record:
>  <compound>
CN(CC(F)(F)F)C(=O)Cn1c(N2CC[C@@H](F)[C@H](N)C2)nc2cc(F)ccc21 [Example 460]

>  <pIC50>
7.62

$$$$
>  <compound>
C[C@H](c1ccc(C#N)cn1)n1c(N2CC[C@H]3OCCN[C@@H]3C2)nc2cc(F)cc(F)c21 [Example 271]

>  <pIC50>
6.80

$$$$
>  <compound>
CN(CC(F)(F)F)C(=O)Cn1c(N2CC[C@@H](F)[C@H](N)C2)nc2c(C#N)cc(F)cc21 [Example 447]

>  <pIC50>
6.92

$$$$
>  <compound>
N#Cc1cnc(Cn2c(N3CCC(F)(F)[C@H](N)C3)nc3ccc(Cl)cc32)cn1 [Example 233]

>  <pIC50>
8.83

$$$$
>  <compound>
N#Cc1ccc(Cn2c(N3CCC[C@H](N)C3)nc3c(F)cc(F)cc32)nc1 [Example 61]

>  <pIC50>
8.57

$$$$
>  <compound>
NC(=O)c1cnc(Cn2c(N3CC[C@H](F)[C@H](N)C3)nc3ccc(C(F)(F)F)cc32)cn1 [Example 122]

>  <pIC50>
7.52

$$$$

Value (pIC50, human TRPC6 (Homo sapiens)) for record C[C@H](CC#N)NC(=O)Cn1c(N2CC[C@@H](F)[C@H](N)C2)nc2ccc(F)cc21 [Example 670] = 5.95

Value (pIC50, human TRPC6 (Homo sapiens)) for record COc1ccc2nc(N3CCC[C@@H](N)C3)n(Cc3ccc(C#N)cc3)c2c1 [Example 185] = 8.45

Value (pIC50, human TRPC6 (Homo sapiens)) for record COc1ccc2nc(N3CCC(F)(F)[C@H](N)C3)n(Cc3ccc(C#N)cn3)c2c1 [Example 138] = 9.28

Value (pIC50, human TRPC6 (Homo sapiens)) for record N#Cc1ccc(Cn2c(N3CC[C@@H](F)[C@H](N)C3)nc3c(F)cc(F)cc32)cc1 [Example 157] = 9.30

Value (pIC50, human TRPC6 (Homo sapiens)) for record CCc1nc(Cn2c(N3CC[C@@H](F)[C@H](N)C3)nc3cc(F)c(F)cc32)no1 [Example 577] = 6.74

Value (pIC50, human TRPC6 (Homo sapiens)) for record N[C@@H]1CN(c2nc3ccccc3n2Cc2ccc(F)cn2)CC[C@H]1F [Example 189] = 8.45

Value (pIC50, human TRPC6 (Homo sapiens)) for record N#Cc1ccc(Cn2c(N3CCC(F)(F)C(N)C3)nc3ccc(F)cc32)cc1 (stereo in doubt) [Example 416] = 8.63

Value (pIC50, human TRPC6 (Homo sapiens)) for record N[C@@H]1CN(c2nc3ccc(F)cc3n2CC(=O)NC2CCC2)CC[C@H]1F [Example 668] = 6.11
